Items are presented alongside their recorded EC50.
biological target: human TGR5 (h-TGR5) (Homo sapiens, UniProt Q8TDU6); construct: expressed in transfected cells; experiment: TGR5/CRE-Luciferiase Assay (HEK 293 hTGR5/CRE-Luc cells); format: cell-based; details: h-TGR5 CRE-Luc EC50, Table 1; read-out: CRE-Luc (EC50)
Sequence (Q8TDU6 whole entry): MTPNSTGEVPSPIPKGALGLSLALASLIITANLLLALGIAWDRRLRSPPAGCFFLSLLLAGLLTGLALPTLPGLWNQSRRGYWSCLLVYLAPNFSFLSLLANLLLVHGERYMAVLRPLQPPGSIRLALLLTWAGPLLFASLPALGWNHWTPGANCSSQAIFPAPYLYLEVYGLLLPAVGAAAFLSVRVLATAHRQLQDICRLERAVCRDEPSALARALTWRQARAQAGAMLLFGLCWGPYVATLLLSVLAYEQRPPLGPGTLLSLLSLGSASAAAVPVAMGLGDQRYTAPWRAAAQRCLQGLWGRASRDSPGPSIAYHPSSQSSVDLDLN

>  <structure string>
COc1ccc(C(C)(C)c2cnc(SCc3ccc(Cl)cc3Cl)n2-c2ccc(F)cc2)cc1OC

>  <EC50>
< 0.1 µM

$$$$
>  <structure string>
COc1cc(C(C)(C)c2cnc(SCc3c(F)cc(C(=O)N[C@@H](CCCNC(=N)N)C(=O)O)cc3Cl)n2-c2ccc(F)cc2)ccc1Cl

>  <EC50>
< 0.1 µM

$$$$
>  <structure string>
CC(C)(c1ccc(Cl)c(Cl)c1)c1cnc(SCC2CCN(c3ccc(F)cc3)CC2)n1-c1ccc(F)cc1

>  <EC50>
1 to 10 µM

$$$$
>  <structure string>
COc1cc(C(C)(C)c2cnc(SCc3ccc(Cl)c(-c4nnn[nH]4)c3)n2-c2ccc(F)cc2)ccc1Cl

>  <EC50>
< 0.1 µM

$$$$
>  <structure string>
CC(C)(c1ccc(Cl)c(Cl)c1)c1cnc(SCc2cc(-c3nnn[nH]3)ccc2Cl)n1-c1ccc(F)cc1

>  <EC50>
0.1 to 1 µM

$$$$
>  <structure string>
COc1cc(C(C)(C)c2cnc(SCc3ccc(S(=O)(=O)NC(=O)NN4CCCC4)cc3Cl)n2-c2ccc(F)cc2)ccc1F

>  <EC50>
0.1 to 1 µM

$$$$
>  <structure string>
COc1ccc(C(C)(C)c2cnc(SCc3ccc(C(=O)O)cc3F)n2-c2ccc(F)cc2)cc1Cl

>  <EC50>
0.1 to 1 µM

$$$$
>  <structure string>
COc1cc(C(C)(C)c2cnc(SCC3CCN(CCO)CC3)n2-c2ccc(F)cc2)ccc1Cl

>  <EC50>
1 to 10 µM

$$$$
